biological target: Sodium channel protein type 3 subunit alpha (Homo sapiens); test: Inhibition of human Nav1.3 expressed in CHO cells under inactivated state by automated patch clamp electrophysiology analysis; format: cell-based
readout: IC50 (µM)

>  <compound>
CC(=O)NS(=O)(=O)c1ccc(NC(=O)c2cccn2Cc2ccccc2)cc1

>  <readout>
IC50

>  <qualifierSign>
=

>  <recordedResult>
23

$$$$
>  <compound>
O=C(Nc1ccc(S(=O)(=O)Nc2nccs2)cc1)C1Cc2cc(Cl)ccc2O1 (stereo unspecified)

>  <readout>
IC50

>  <qualifierSign>
=

>  <recordedResult>
0.24

$$$$
>  <compound>
CC(=O)NS(=O)(=O)c1ccc(NC(=O)c2cc(Br)c(Br)n2-c2ccccc2)cc1

>  <readout>
IC50

>  <qualifierSign>
=

>  <recordedResult>
19

$$$$
>  <compound>
CS(=O)(=O)NC(=O)c1cccc(OC[C@@H]2C[C@H]2c2ccccc2)c1

>  <readout>
IC50

>  <qualifierSign>
>

>  <recordedResult>
30

$$$$
>  <compound>
NC1=N[C@H](O)[C@H]2[C@H]3O[C@]4(O)O[C@@H]([C@@H](O)[C@@]2(N1)[C@@H]4O)[C@]3(O)CO

>  <readout>
IC50

>  <qualifierSign>
=

>  <recordedResult>
0.001

$$$$
>  <compound>
CC1CCCC(C)N1S(=O)(=O)c1ccc(NS(=O)(=O)c2ccc3c(c2)CC(=O)N3C)cc1 (stereo unspecified)

>  <readout>
IC50

>  <qualifierSign>
=

>  <recordedResult>
28

$$$$
>  <compound>
CS(=O)(=O)NC(=O)c1ccc(NC(=O)[C@@H]2C[C@H]2c2ccccc2)cc1

>  <readout>
IC50

>  <qualifierSign>
>

>  <recordedResult>
30

$$$$
>  <compound>
CC(Oc1ccc(Cl)cc1)C(=O)Nc1ccc(S(=O)(=O)Nc2nccs2)cc1 (stereo unspecified)

>  <readout>
IC50

>  <qualifierSign>
=

>  <recordedResult>
0.32

$$$$
>  <compound>
CC(NS(=O)(=O)c1ccc(C2=CC(c3ccc(Cl)cc3)n3nnnc3N2)cc1)C(=O)O (stereo unspecified)

>  <readout>
IC50

>  <qualifierSign>
>

>  <recordedResult>
30

$$$$
>  <compound>
CS(=O)(=O)NC(=O)c1ccc(NC(=O)c2cccn2Cc2ccc(Cl)cc2)cc1

>  <readout>
IC50

>  <qualifierSign>
>

>  <recordedResult>
30

$$$$
>  <compound>
Cc1nn(C)cc1/C=C(\C#N)C(=O)Nc1ccc(S(=O)(=O)Nc2nccs2)cc1

>  <readout>
IC50

>  <qualifierSign>
=

>  <recordedResult>
3.8

$$$$

====

target: Sodium channel protein type 9 subunit alpha (Homo sapiens, UniProt Q15858); test: Inhibition of human Nav1.7 expressed in CHO cells under inactivated state by automated patch clamp electrophysiology analysis; type: cell-based
pIC50: −log10 of the molar value.

>  <molecule>
O=C(Nc1nccs1)c1ccc(NC(=O)[C@@H]2C[C@H]2c2ccccc2)cc1

>  <qualifierSign>
<

>  <pIC50>
4.52

$$$$
>  <molecule>
O=C(Nc1ccc(S(=O)(=O)Nc2nccs2)cc1)c1cc(Br)c(Br)n1Cc1ccccc1

>  <qualifierSign>
=

>  <pIC50>
5.15

$$$$
>  <molecule>
O=C(Nc1ccc(S(=O)(=O)Nc2nccs2)cc1)c1cc(Br)c(Br)n1-c1ccccc1

>  <qualifierSign>
=

>  <pIC50>
5.03

$$$$
>  <molecule>
O=C(Nc1ccc(S(=O)(=O)Nc2nccs2)cc1)C1CC1c1ccc(F)c(F)c1 (racemic)

>  <qualifierSign>
=

>  <pIC50>
5.15

$$$$
>  <molecule>
O=C(Nc1ccc(S(=O)(=O)Nc2nccs2)cc1)c1cccn1Cc1ccc(Cl)cc1

>  <qualifierSign>
=

>  <pIC50>
5.08

$$$$
>  <molecule>
CN(C)CCC=C1c2ccccc2CCc2ccccc21

>  <qualifierSign>
=

>  <pIC50>
5.64

$$$$

====

molecular target: Sodium channel protein type 3 subunit alpha (Homo sapiens, UniProt Q9NY46); experiment: Inhibition of human Nav1.3 expressed in CHO cells under resting state by automated patch clamp electrophysiology analysis; assay type: cell-based
Sequence (Q9NY46 whole entry): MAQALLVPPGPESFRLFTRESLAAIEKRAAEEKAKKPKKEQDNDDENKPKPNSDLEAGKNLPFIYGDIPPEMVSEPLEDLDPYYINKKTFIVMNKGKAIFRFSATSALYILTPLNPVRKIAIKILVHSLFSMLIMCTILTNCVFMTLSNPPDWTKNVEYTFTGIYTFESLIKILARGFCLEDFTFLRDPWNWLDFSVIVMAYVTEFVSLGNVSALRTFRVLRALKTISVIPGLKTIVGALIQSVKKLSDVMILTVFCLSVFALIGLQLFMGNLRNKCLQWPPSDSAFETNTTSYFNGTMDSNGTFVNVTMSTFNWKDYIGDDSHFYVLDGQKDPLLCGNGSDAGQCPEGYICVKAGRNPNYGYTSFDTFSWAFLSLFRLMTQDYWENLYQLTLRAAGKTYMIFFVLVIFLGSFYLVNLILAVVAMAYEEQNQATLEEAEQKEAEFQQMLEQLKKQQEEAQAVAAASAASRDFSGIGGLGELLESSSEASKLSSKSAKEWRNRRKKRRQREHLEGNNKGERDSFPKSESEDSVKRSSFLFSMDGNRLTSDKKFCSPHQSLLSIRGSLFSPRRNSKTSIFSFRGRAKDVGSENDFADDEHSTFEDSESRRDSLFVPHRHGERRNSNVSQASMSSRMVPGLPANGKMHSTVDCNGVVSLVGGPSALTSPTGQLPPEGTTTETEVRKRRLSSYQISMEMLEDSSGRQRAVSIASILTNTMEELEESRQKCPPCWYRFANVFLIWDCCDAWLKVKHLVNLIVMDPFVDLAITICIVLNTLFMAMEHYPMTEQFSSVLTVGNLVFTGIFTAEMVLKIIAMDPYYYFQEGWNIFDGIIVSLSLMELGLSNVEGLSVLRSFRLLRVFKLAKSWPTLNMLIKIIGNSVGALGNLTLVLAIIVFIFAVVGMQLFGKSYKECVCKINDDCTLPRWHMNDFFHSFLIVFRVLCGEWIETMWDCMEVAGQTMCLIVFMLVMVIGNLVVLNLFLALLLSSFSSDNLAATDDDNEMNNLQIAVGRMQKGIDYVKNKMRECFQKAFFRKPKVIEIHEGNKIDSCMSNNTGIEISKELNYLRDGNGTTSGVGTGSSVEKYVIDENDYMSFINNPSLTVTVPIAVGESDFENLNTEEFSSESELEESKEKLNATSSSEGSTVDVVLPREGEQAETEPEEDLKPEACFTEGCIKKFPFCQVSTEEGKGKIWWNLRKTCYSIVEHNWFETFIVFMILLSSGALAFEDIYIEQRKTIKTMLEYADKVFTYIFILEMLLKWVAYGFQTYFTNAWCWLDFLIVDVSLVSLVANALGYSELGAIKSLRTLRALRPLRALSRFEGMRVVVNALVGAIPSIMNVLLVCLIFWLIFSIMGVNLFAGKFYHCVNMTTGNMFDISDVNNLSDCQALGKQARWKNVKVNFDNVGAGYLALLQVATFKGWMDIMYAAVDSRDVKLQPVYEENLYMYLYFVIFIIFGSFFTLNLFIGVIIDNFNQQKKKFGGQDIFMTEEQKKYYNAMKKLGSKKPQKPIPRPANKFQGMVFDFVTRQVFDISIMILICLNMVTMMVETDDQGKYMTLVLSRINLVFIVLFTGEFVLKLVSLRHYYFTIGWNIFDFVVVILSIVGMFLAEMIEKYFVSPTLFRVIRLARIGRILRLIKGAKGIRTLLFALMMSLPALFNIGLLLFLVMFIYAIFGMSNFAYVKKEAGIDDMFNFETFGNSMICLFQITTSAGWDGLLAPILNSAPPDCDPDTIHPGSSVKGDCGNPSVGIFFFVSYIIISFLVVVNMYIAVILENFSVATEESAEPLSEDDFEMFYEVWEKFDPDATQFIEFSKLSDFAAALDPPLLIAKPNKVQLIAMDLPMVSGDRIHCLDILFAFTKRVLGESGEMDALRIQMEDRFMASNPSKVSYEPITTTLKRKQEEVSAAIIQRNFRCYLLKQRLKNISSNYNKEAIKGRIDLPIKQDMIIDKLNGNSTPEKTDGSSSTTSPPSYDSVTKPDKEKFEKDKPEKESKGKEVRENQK
pIC50: −log10 of the molar value.
Catalogue of pIC50 values

>  <compound>
CC1CCCC(C)N1S(=O)(=O)c1ccc(NS(=O)(=O)c2ccc3c(c2)CC(=O)N3C)cc1 (stereo not given)

>  <testTarget>
Sodium channel protein type 3 subunit alpha (Homo sapiens, UniProt Q9NY46)

>  <pIC50>
< 4.52

$$$$
>  <compound>
CS(=O)(=O)NC(=O)c1ccc(NC(=O)[C@@H]2C[C@H]2c2ccccc2)cc1

>  <testTarget>
Sodium channel protein type 3 subunit alpha (Homo sapiens, UniProt Q9NY46)

>  <pIC50>
< 4.52

$$$$
>  <compound>
Cc1nn(C)cc1/C=C(\C#N)C(=O)Nc1ccc(S(=O)(=O)Nc2nccs2)cc1

>  <testTarget>
Sodium channel protein type 3 subunit alpha (Homo sapiens, UniProt Q9NY46)

>  <pIC50>
4.59

$$$$
>  <compound>
CC(CCc1ccc(O)cc1)NC(=O)Nc1ccc(S(=O)(=O)N2CCCC2)cc1 (stereo not given)

>  <testTarget>
Sodium channel protein type 3 subunit alpha (Homo sapiens, UniProt Q9NY46)

>  <pIC50>
< 4.52

$$$$
>  <compound>
CC(NS(=O)(=O)c1ccc(C2=CC(c3ccc(Cl)cc3)n3nnnc3N2)cc1)C(=O)O (stereo not given)

>  <testTarget>
Sodium channel protein type 3 subunit alpha (Homo sapiens, UniProt Q9NY46)

>  <pIC50>
< 4.52

$$$$

====

target: Sodium channel protein type 10 subunit alpha (Homo sapiens) (UniProt Q9Y5Y9); assay: Inhibition of human Nav1.8 expressed in Xenopus laevis oocytes at closed state at 1 uM by two electrode voltage-clamp assay; format: cell-based; conditions: Oocyte
Sequence (Q9Y5Y9 whole entry, looked up): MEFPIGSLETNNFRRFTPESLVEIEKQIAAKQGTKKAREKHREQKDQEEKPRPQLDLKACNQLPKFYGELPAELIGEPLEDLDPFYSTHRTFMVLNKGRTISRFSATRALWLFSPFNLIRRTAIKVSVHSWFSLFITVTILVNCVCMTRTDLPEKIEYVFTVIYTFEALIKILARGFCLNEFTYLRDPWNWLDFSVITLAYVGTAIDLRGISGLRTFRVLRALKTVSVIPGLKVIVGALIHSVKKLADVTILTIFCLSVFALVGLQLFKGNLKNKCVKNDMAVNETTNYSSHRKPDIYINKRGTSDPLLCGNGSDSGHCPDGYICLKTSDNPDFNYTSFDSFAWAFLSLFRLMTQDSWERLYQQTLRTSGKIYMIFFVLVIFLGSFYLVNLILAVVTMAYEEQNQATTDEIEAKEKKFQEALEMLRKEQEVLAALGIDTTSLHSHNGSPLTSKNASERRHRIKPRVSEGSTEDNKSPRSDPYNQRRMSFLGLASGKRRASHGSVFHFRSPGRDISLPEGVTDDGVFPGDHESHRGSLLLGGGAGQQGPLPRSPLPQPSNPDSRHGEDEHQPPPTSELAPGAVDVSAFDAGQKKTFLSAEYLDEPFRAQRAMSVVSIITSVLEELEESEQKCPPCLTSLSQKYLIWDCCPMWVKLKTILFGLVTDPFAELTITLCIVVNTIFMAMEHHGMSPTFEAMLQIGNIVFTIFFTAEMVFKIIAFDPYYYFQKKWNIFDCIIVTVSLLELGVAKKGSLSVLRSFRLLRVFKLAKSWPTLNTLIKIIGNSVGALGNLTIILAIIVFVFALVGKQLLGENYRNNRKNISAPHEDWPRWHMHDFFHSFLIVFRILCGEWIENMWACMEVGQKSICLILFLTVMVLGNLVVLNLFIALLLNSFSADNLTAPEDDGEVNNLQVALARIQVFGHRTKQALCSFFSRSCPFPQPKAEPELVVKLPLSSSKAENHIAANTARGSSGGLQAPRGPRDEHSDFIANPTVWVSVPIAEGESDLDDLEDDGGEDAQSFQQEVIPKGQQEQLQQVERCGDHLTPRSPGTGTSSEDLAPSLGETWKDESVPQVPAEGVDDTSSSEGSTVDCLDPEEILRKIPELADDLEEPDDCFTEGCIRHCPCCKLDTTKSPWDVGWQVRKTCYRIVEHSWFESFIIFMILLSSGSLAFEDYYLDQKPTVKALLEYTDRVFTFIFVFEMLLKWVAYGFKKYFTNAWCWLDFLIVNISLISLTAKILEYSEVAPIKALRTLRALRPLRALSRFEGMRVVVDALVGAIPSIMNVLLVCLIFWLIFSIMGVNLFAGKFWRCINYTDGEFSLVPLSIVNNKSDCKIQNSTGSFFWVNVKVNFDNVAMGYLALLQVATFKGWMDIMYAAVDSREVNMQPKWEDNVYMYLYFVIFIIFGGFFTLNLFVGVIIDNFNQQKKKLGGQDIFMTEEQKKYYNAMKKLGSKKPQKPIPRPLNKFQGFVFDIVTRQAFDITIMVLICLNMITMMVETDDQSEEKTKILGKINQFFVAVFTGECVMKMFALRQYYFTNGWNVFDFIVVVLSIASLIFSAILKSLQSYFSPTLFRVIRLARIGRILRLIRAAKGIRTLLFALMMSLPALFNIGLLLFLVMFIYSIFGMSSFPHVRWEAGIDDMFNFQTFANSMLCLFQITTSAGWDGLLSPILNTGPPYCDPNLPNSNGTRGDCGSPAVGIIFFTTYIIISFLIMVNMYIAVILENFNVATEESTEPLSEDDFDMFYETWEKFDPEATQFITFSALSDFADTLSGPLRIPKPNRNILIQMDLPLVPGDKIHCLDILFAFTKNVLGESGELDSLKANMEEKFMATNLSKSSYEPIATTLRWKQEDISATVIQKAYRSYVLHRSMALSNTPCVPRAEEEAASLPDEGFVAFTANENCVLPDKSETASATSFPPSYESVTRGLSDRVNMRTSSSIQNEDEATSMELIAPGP
Calls of active or inactive are those of the source. The calls are words filed in the database; no cut-off is given here.

>  <compound>
O=C(Nc1ccc(S(=O)(=O)Nc2nccs2)cc1)C1Cc2cc(Cl)ccc2O1 (stereo not drawn)

>  <inhibition>
inactive

$$$$
>  <compound>
CS(=O)(=O)NC(=O)c1ccc(NC(=O)[C@@H]2C[C@H]2c2ccccc2)cc1

>  <inhibition>
inactive

$$$$
>  <compound>
CC(Oc1ccc(Cl)cc1)C(=O)Nc1ccc(S(=O)(=O)Nc2nccs2)cc1 (stereo not drawn)

>  <inhibition>
inactive

$$$$

====

target: Sodium channel protein type 9 subunit alpha (Homo sapiens); experiment: Inhibition of human Nav1.7 expressed in CHO cells under resting state by automated patch clamp electrophysiology analysis; format: cell-based
pIC50: −log10 of the molar value.

>  <compound>
O=C(Nc1nccs1)c1ccc(NC(=O)[C@@H]2C[C@H]2c2ccccc2)cc1

>  <pIC50>
< 4.52

$$$$
>  <compound>
O=C(Nc1ccc(S(=O)(=O)Nc2nccs2)cc1)c1cc(Br)c(Br)n1Cc1ccccc1

>  <pIC50>
< 4.52

$$$$
>  <compound>
O=C(Nc1ccc(S(=O)(=O)Nc2nccs2)cc1)c1cccn1Cc1ccc(Cl)cc1

>  <pIC50>
< 4.52

$$$$
>  <compound>
O=C(Nc1ccc(S(=O)(=O)Nc2nccs2)cc1)C1CC1c1ccc(F)c(F)c1 (racemic)

>  <pIC50>
< 4.52

$$$$
>  <compound>
O=C(Nc1ccc(S(=O)(=O)Nc2nccs2)cc1)c1cc(Br)c(Br)n1-c1ccccc1

>  <pIC50>
< 4.52

$$$$
>  <compound>
CN(C)CCC=C1c2ccccc2CCc2ccccc21

>  <pIC50>
5.00

$$$$

====

Catalogue of pIC50 values
target: Sodium channel protein type 3 subunit alpha (Homo sapiens); experiment: Inhibition of human Nav1.3 expressed in CHO cells under resting state by automated patch clamp electrophysiology analysis; type: cell-based
pIC50: −log10 of the molar value.
readout: pIC50

>  <compound>
CC(=O)NS(=O)(=O)c1ccc(NC(=O)c2cc(Br)c(Br)n2-c2ccccc2)cc1

>  <readout>
pIC50

>  <recordedResult>
< 4.52

$$$$
>  <compound>
CC1CCCCN1C(=O)c1ccc(NS(=O)(=O)c2ccc3[nH]c(=O)[nH]c3c2)cc1 (stereo unspecified)

>  <readout>
pIC50

>  <recordedResult>
< 4.52

$$$$
>  <compound>
NC1=N[C@H](O)[C@H]2[C@H]3O[C@]4(O)O[C@@H]([C@@H](O)[C@@]2(N1)[C@@H]4O)[C@]3(O)CO

>  <readout>
pIC50

>  <recordedResult>
8.40

$$$$
>  <compound>
CS(=O)(=O)NC(=O)c1cccc(OC[C@@H]2C[C@H]2c2ccccc2)c1

>  <readout>
pIC50

>  <recordedResult>
< 4.52

$$$$
>  <compound>
CS(=O)(=O)NC(=O)c1ccc(NC(=O)C2CC2c2ccc(F)c(F)c2)cc1 (racemic)

>  <readout>
pIC50

>  <recordedResult>
< 4.52

$$$$
>  <compound>
CS(=O)(=O)NC(=O)c1ccc(NC(=O)c2cccn2Cc2ccc(Cl)cc2)cc1

>  <readout>
pIC50

>  <recordedResult>
< 4.52

$$$$
>  <compound>
CC(=O)NS(=O)(=O)c1ccc(NC(=O)CC(C)c2ccccc2)cc1 (stereo unspecified)

>  <readout>
pIC50

>  <recordedResult>
< 4.52

$$$$
>  <compound>
CC(=O)NS(=O)(=O)c1ccc(NC(=O)c2cccn2Cc2ccccc2)cc1

>  <readout>
pIC50

>  <recordedResult>
< 4.52

$$$$
>  <compound>
O=C(Nc1ccc(S(=O)(=O)Nc2nccs2)cc1)C1CC1c1ccc(F)c(F)c1 (racemic)

>  <readout>
pIC50

>  <recordedResult>
5.16

$$$$
>  <compound>
O=C(Nc1ccc(S(=O)(=O)Nc2nccs2)cc1)C1Cc2cc(Cl)ccc2O1 (stereo unspecified)

>  <readout>
pIC50

>  <recordedResult>
< 4.52

$$$$
>  <compound>
CC(Oc1ccc(Cl)cc1)C(=O)Nc1ccc(S(=O)(=O)Nc2nccs2)cc1 (stereo unspecified)

>  <readout>
pIC50

>  <recordedResult>
< 4.52

$$$$

Source listed as ChEMBL document CHEMBL5620393.
